// reported IC50 for each item listed
systemUnderTest: TMPRSS2 (Homo sapiens)
Sequence (O15393 106-492 limits assumed): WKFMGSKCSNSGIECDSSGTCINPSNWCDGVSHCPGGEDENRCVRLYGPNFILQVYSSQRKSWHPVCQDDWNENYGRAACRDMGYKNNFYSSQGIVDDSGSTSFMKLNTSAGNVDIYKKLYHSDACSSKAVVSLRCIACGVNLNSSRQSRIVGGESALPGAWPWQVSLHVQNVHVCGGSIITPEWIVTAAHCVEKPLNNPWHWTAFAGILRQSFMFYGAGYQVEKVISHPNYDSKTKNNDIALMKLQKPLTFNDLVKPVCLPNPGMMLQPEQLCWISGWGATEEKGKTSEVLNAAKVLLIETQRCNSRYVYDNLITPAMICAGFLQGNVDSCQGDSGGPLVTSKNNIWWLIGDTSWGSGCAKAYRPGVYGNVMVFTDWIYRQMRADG
assayNotes: Fluorogenic kinetic enzyme inhibitor assay, TMPRSS2
Format: biochemical
Parameters: purchased Cusabio Technology CSB-YP023924HU
conditionNotes: read-out: TMPRSS2 IC50

# compound, IC50
measured = [
    ("CC(=O)N[C@H]1Cc2cccc(c2)Oc2ccc(cc2)C[C@@H](C(=O)N[C@@H](CCCNC(=N)N)C(=O)c2nc3ccccc3s2)NC(=O)[C@H](CC(C)C)NC1=O [VD5123B]", "15.2 nM"),
    ("CC(=O)N[C@H]1CC(=O)NCCCC[C@@H](C(=O)N[C@@H](CCCNC(=N)N)C(=O)c2nc3ccccc3s2)NC(=O)[C@H](CCC(N)=O)NC1=O [VD3152]", "24.3 nM"),
    ("N=C(N)NCCC[C@@H](NC(=O)[C@H](Cc1ccccc1)NC(=O)[C@H](CCC(N)=O)N1CCCCC1)C(=O)c1nc2ccccc2s1 [CA1046-1]", "69.2 nM"),
    ("CCC(C)[C@H](NC(C)=O)C(=O)N[C@H](Cc1cc2ccccc2[nH]1)C(=O)N[C@@H](Cc1ccccc1)C(=O)N[C@@H](CCCNC(=N)N)C(=O)c1nc2ccccc2s1 (stereo partly drawn) [MM4038]", "0.04 nM"),
    ("CCC[C@H](NC(=O)OCC1c2ccccc2-c2ccccc21)C(=O)N[C@@H](CCCNC(=N)N)C(=O)c1nc2ccccc2s1 [MF1150]", "19.3 nM"),
    ("N=C(N)NCCC[C@H](NC(=O)[C@H](CCCCOCc1ccccc1)NC(=O)OCC1c2ccccc2-c2ccccc21)C(=O)c1nc2ccccc2s1 [MF1165]", "0.864 nM"),
]
